- MEASUREMENT_TARGET: RORc ligand binding domain (Homo sapiens, UniProt P51449)
- MEASUREMENT_DESCRIPTION: In vitro RORc ligand binding assay (25-[3H]hydroxycholesterol displacement)
pIC50: −log10 of the molar value.
MEASURED_PROPERTY: pIC50

Answered cases to consult:
C[C@H]1CC[C@@H](c2ccccc2)S(=O)(=O)N1Cc1cc(F)c([C@]2(c3c[nH]c(=O)o3)C[C@@](O)(C3(C)CC3)C2)cc1F (racemic) | 7.81
C[C@H]1CC[C@H](c2ccccc2)S(=O)(=O)N1Cc1ccc(C2(c3noc(CO)n3)CCOCC2)cc1F | 7.20
C[C@H]1CC[C@H](c2ccccc2)S(=O)(=O)N1Cc1cc(F)c([C@]2(c3n[nH]c(=O)o3)C[C@@H]2CO)cc1F | 7.41

A: C[C@H]1CC[C@H](c2ccccc2)S(=O)(=O)N1Cc1cc(F)c(C2(N3CCOC3=O)CCOCC2)cc1F
B: C[C@H]1CC[C@H](c2ccccc2)S(=O)(=O)N1Cc1cc(F)c(C2(c3nnc(CO)o3)CCOCC2)cc1F
Rank A against B by their pIC50 values and give the higher one. Refer to your chosen entry by its label in the reply.
B

###

- MEASUREMENT_TARGET: RORc ligand binding domain (Homo sapiens, UniProt P51449)
- MEASUREMENT_DESCRIPTION: In vitro RORc ligand binding assay (25-[3H]hydroxycholesterol displacement)
MEASURED_PROPERTY: IC50 (nM)

Answered cases to consult:
CNc1nnc(C2(c3cc(F)c(CN4[C@@H](C)CC[C@H](c5ccccc5)S4(=O)=O)cc3F)CCOCC2)o1 | 13.7
CO[C@H]1C[C@](c2n[nH]c(=O)o2)(c2cc(F)c(CN3[C@@H](C)CC[C@H](c4ccccc4)S3(=O)=O)cc2F)C1 | 11.3

1: Cc1cncc(C(=O)NC2(c3cc(F)c(CN4[C@@H](C)CC[C@H](c5ccccc5)S4(=O)=O)cc3F)CCOCC2)n1
2: C[C@H]1CC[C@H](c2ccccc2)S(=O)(=O)N1Cc1ccc(C2(Cn3cnnc3)CCOCC2)cc1F
Please choose the item with the lower IC50 value from this pair: 1 and 2 Refer to your chosen entry by its label in the reply.
1
(1: 19.2 nM, 2: 118 nM)

###

- MEASUREMENT_TARGET: RORc ligand binding domain (Homo sapiens)
- MEASUREMENT_DESCRIPTION: In vitro RORc ligand binding assay (25-[3H]hydroxycholesterol displacement)
pIC50: −log10 of the molar value.
MEASURED_PROPERTY: pIC50

C[C@H]1CC[C@H](c2ccccc2)S(=O)(=O)N1Cc1ccc(C2(NCc3ccc[nH]c3=O)CCOCC2)cc1F [Example 77] | 7.06
Cc1nnc(C2(c3ccc(CN4[C@@H](C)CC[C@H](c5ccccc5)S4(=O)=O)c(F)c3)CCOCC2)[nH]1 [Example 47] | 6.94
C[C@H]1CC[C@H](c2ccccc2)S(=O)(=O)N1Cc1ccc(C2(c3nnc[nH]3)CCOCC2)cc1F [Example 46] | 7.58
Cc1cc(COC2(c3cc(F)c(CN4[C@@H](C)CC[C@H](c5ccccc5)S4(=O)=O)cc3F)COC2)no1 [Example 110] | 8.89
C[C@H]1CC[C@H](c2ccccc2)S(=O)(=O)N1Cc1cc(F)c(C2(NC(=O)c3ccon3)CCOCC2)cc1F [Example 107] | 8.57
C[C@H]1CC[C@H](c2ccccc2)S(=O)(=O)N1Cc1cc(F)c([C@]2([C@H]3CNC(=O)O3)C[C@](C)(O)C2)cc1F (racemic) [Example 172] | 7.28

a: CCOC(=O)c1nnc(C2(c3cc(F)c(CN4[C@@H](C)CC[C@H](c5ccccc5)S4(=O)=O)cc3F)CCOCC2)o1 [Example 60]
b: C[C@H]1CC[C@H](c2ccccc2)S(=O)(=O)N1Cc1cc(F)c(C2(NCC3CCOC3)COC2)cc1F (stereo partly shown) [Example 136]
c: C[C@H]1CC[C@H](c2ccccc2)S(=O)(=O)N1Cc1cc(F)c(C2(c3nn(C)c(=O)o3)CCOCC2)cc1F [Example 140]
d: C[C@H]1CC[C@H](c2ccccc2)S(=O)(=O)N1Cc1ccc(C2(c3nnco3)CCOCC2)cc1F [Example 42]
e: Cc1n[nH]cc1C(=O)NC1(c2cc(F)c(CN3[C@@H](C)CC[C@H](c4ccccc4)S3(=O)=O)cc2F)COC1 (stereo in doubt) [Example 130]
Rank items: key pIC50, increasing. Submit the labels in the order that the ranking request calls for.
e, d, b, c, a

###

- MEASUREMENT_TARGET: RORc ligand binding domain (Homo sapiens)
- MEASUREMENT_DESCRIPTION: In vitro RORc ligand binding assay (25-[3H]hydroxycholesterol displacement)
pIC50: −log10 of the molar value. Structures can show the parent of a compound that is named as a salt.
MEASURED_PROPERTY: pIC50

Answered cases to consult:
C[C@H]1CC[C@H](c2ccccc2)S(=O)(=O)N1Cc1cc(F)c(C2(NC(=O)Cc3ccon3)CCOCC2)cc1F | 8.59
C[C@H]1CC[C@H](c2ccccc2)S(=O)(=O)N1Cc1cc(F)c(C2(NCc3cocn3)COC2)cc1F | 8.39
C[C@H]1CC[C@H](c2ccccc2)S(=O)(=O)N1Cc1ccc(C2(OCc3nnc[nH]3)COC2)cc1F | 7.63
C[C@H]1CC[C@H](c2ccccc2)S(=O)(=O)N1Cc1cc(F)c(C2(c3nnc(N)o3)CCOCC2)cc1F | 7.72
C[C@H]1CC[C@H](c2ccccc2)S(=O)(=O)N1Cc1cc(F)c([C@]2(NC(=O)c3csnn3)C[C@](C)(O)C2)cc1F (racemic) | 7.89
COC1(OC)CC(c2n[nH]c(=O)o2)(c2cc(F)c(CN3[C@@H](C)CC[C@H](c4ccccc4)S3(=O)=O)cc2F)C1 | 8.24

A: C[C@H]1CC[C@H](c2ccccc2)S(=O)(=O)N1Cc1cc(F)c(C2(NC(=O)c3c[nH]cn3)COC2)cc1F (stereo in doubt)
B: C[C@H]1CC[C@H](c2ccccc2)S(=O)(=O)N1Cc1ccc(C2(c3nnc(CO)o3)CCOCC2)cc1F
C: COC1(OC)CC(c2nnc[nH]2)(c2cc(F)c(CN3[C@@H](C)CC[C@H](c4ccccc4)S3(=O)=O)cc2F)C1
D: C[C@H]1CC[C@H](c2ccccc2)S(=O)(=O)N1Cc1cc(F)c(C2(c3n[nH]c(=O)o3)CC2)cc1F
Rank items: key pIC50, increasing. Submit the labels in the order that the ranking request calls for.
B, A, D, C

I: C[C@H]1CC[C@H](c2ccccc2)S(=O)(=O)N1Cc1cc(F)c(C2(N3C[C@H](CO)OC3=O)CCOCC2)cc1F
II: C[C@H]1CC[C@H](c2ccccc2)S(=O)(=O)N1Cc1cc(F)c(C2(c3nnc[nH]3)CC(F)(F)C2)cc1F
III: C[C@H]1CC[C@H](c2ccccc2)S(=O)(=O)N1Cc1cc(F)c(C2(NCc3cnccn3)COC2)cc1F
IV: C[C@H]1CC[C@H](c2ccccc2)S(=O)(=O)N1Cc1cc(F)c([C@]2(c3n[nH]c(=O)o3)C[C@](C)(N)C2)cc1F (racemic) [Example 173, hydrochloride]
Order the items by recorded pIC50; the first position goes to the largest value. Submit the labels in the order that the ranking request calls for.
II, III, I, IV

a: C[C@H]1CC[C@H](c2ccccc2)S(=O)(=O)N1Cc1cc(F)c(C2(N3C[C@@H](CO)OC3=O)CCOCC2)cc1F
b: Cc1cc(CNC2(c3ccc(CN4[C@@H](C)CC[C@H](c5ccccc5)S4(=O)=O)c(F)c3)CCOCC2)no1
c: C[C@H]1CC[C@H](c2ccccc2)S(=O)(=O)N1Cc1cc(F)c([C@]2(c3nnc[nH]3)C[C@@H](O)C2)cc1F
d: Cc1cc(N)nn1C(=O)C1(c2ccc(CN3[C@@H](C)CC[C@H](c4ccccc4)S3(=O)=O)c(F)c2)CCOCC1
Order the items by recorded pIC50; the first position goes to the largest value. Submit the labels in the order that the ranking request calls for.
d, b, c, a

###

- MEASUREMENT_TARGET: RORc ligand binding domain (Homo sapiens, UniProt P51449)
- Sequence (P51449 269-508 limits assumed): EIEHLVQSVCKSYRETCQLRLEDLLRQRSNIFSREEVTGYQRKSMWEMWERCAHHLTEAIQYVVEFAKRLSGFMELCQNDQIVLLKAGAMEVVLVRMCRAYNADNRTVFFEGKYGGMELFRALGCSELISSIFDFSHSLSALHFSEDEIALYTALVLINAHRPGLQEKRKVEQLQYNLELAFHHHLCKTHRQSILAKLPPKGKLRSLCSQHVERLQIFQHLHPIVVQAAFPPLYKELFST
- MEASUREMENT_DESCRIPTION: In vitro RORc ligand binding assay (25-[3H]hydroxycholesterol displacement)
MEASURED_PROPERTY: IC50 (nM)

CO[C@H]1C[C@@](c2n[nH]c(=O)o2)(c2cc(F)c(CN3[C@@H](C)CC[C@H](c4ccccc4)S3(=O)=O)cc2F)C1 | 6.2
C[C@H]1CC[C@H](c2ccccc2)S(=O)(=O)N1Cc1cc(F)c(C2(NC(=O)c3ccon3)COC2)cc1F | 22.4
C[C@H]1CC[C@H](c2ccccc2)S(=O)(=O)N1Cc1ccc(C2(NCc3cnc[nH]3)CCOCC2)cc1F | 20.5
C[C@H]1CC[C@H](c2ccccc2)S(=O)(=O)N1Cc1ccc(C2(NCc3cnccn3)CCOCC2)cc1F | 6.6
C[C@H]1CC[C@H](c2ccccc2)S(=O)(=O)N1Cc1ccc(C2(NCc3ncco3)CCOCC2)cc1F | 2.5

P: Cc1cc(CNC2(c3cc(F)c(CN4[C@@H](C)CC[C@H](c5ccccc5)S4(=O)=O)cc3F)COC2)no1
Q: C[C@H]1CC[C@H](c2ccccc2)S(=O)(=O)N1Cc1cc(F)c(C2(NCc3cocn3)CCOCC2)cc1F
R: C[C@H]1CC[C@H](c2ccccc2)S(=O)(=O)N1Cc1ccc(C2(NCc3ncnn3C)CCOCC2)cc1F
Rank items: key IC50, increasing. Submit the labels in the order that the ranking request calls for.
Q, R, P
(Q: 6.4 nM, R: 10.7 nM, P: 20.6 nM)
